In this section, each of the binders is paired with its reported koff.
- targetOfAssay: Recombinant human his-tagged IGF 1R extracellular domain protein (human) (UniProt P08069)
- assayComment: SPR, captured antibody, pH 7.4

binder	koff [s⁻¹]
VRDN-03111 (antibody, V domains shown) VH: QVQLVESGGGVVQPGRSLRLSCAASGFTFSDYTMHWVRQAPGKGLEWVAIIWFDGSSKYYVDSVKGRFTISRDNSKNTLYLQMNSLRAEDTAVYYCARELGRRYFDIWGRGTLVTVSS VL: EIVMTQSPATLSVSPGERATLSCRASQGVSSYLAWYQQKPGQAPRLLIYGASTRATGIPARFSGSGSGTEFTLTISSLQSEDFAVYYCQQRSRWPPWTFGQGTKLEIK	0.000362
VRDN-03120 (antibody, V domains shown) VH: EVQLVESGGGVVQPGRSLRLSCAASGFTFSSYSMHWVRQAPGKGLEWVAVIWYDGSSKYYADSVKGRFTISRDNSKNTLYLQMNSLRAEDTAVYYCARELGRRYFDIWGQGTLVTVSS VL: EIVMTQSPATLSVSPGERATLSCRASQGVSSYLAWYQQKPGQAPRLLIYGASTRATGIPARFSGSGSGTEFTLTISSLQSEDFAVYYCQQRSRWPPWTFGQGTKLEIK	0.00128
VRDN-03046 (antibody, V domains shown) VH: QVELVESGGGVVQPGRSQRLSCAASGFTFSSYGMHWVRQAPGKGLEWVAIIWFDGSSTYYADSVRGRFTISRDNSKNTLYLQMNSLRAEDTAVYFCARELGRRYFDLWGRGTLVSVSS VL: EIVLTQSPATLSLSPGERATLSCRASQSVSSHLAWYQQKPGQAPRLLIYDASKRATGIPARFSGSGSGTDFTLTISSLEPEDFAVYYCQQRSKWPPWTFGQGTKVESK	0.000162

Provenance of the data: patent US20240352133A1
